The measurements presented in this section are drawn from patent US20240301067A1.

molecular target: T1, Human PD-1 extracellular domain, hFc tag (human, UniProt Q15116 25-170); assay: SPR Biacore 8K; PD-1-hFc captured on anti-human Fc chip, VHH injected; 1:1 fit
T1 construct: extracellular domain; also called hPro1.ECD.hFc; not shown: human Fc tag at C-terminus
T1 sequence (Q15116 25-170): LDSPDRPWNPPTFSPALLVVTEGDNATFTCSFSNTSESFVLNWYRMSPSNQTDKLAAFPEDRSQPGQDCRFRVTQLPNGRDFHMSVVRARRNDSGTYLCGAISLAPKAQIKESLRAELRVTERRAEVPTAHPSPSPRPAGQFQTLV
test_readout: kon (M⁻¹ s⁻¹)

| binder | kon [M⁻¹ s⁻¹] |
| --- | --- |
| AP17R1-2H2-Z1-R1-4D8 (VHH, not shown: his- and c-Myc-tag from vector pETbac) VHH: QVQLVESGGGVVQPGGSLRLSCAASDSIQSLVNMGWYRQAPGKQRELVALIANYITHYADFVKGRFTISRDNSKNTLYLQMNSLRAEDTAVYYCYARNIIVDYWGQGTLVTVSS | 417000 |
| AP17R1-2H2-Z1-R1-14B3 (VHH, not shown: his- and c-Myc-tag from vector pETbac) VHH: QVQLVESGGGVVQPGGSLRLSCAASDSIDSLVNMGWYRQAPGKQRELVALIARYITHYADFVKGRFTISRDNSKNTLYLQMNSLRAEDTAVYYCYARNIIVDYWGQGTLVTVSS | 489000 |
| AP17R1-2H2-Z1-R1-27A2 (VHH, not shown: his- and c-Myc-tag from vector pETbac) VHH: QVQLVESGGGVVQPGGSLRLSCAASDSIDSLVNMGWYRQAPGKQRELVALIANYITHYADFVKGRFTISRDNSKNTLYLQMNSLRAEDTAVYYCYARSIIVDYWGQGTLVTVSS | 387000 |
| AP17R1-2H2-Z1-R1-14F1 (VHH, not shown: his- and c-Myc-tag from vector pETbac) VHH: QVQLVESGGGVVQPGGSLRLSCAASDSIDSLVNMGWYRQAPGKQRELVALIAYYITHYADFVKGRFTISRDNSKNTLYLQMNSLRAEDTAVYYCYARNIIVDYWGQGTLVTVSS | 411000 |
